Assay: Pharmacokinetic analysis (oral bioavailability, elimination half-life) in the rat
Assay type: in vivo
Conditions: oral administration, 8 mg/kg dose, HPLC-MS
Description: D. Pharmacokinetic Analysis of Representative Compounds of the Invention The pharmacokinetic behavior of compound of the invention can be ascertained by methods well known to those skilled in the art. […] The table below presents oral bioavailability and elimination half-life data in the rat for representative compounds of the present invention. The parameters were determined by HPLC-MS after oral administration of an 8 mg/kg dose of the compound, except for compound 822 where a 2 mg/kg dose was used.
RECORDED METRIC: Oral Bioavailability (rat, % F)

C[C@@H]1CN[C@@H](C2CC2)C(=O)N(C)[C@H](C)C(=O)N[C@H](Cc2ccc(Cl)cc2)C(=O)NCCCc2ccccc2O1 :: 22

I. CC(C)C[C@H]1NC(=O)[C@@H](C)N(C)C(=O)[C@H](C2CC2)NC[C@@H](C)Oc2c(F)cccc2CCCNC1=O
II. CC(C)C[C@H]1NC(=O)[C@@H](C)N(C)C(=O)[C@H](C2CCCCC2)NC[C@@H](C)Oc2cccnc2CCCNC1=O
Input pair: I , II . Output: entry with lower Oral Bioavailability (rat, % F). Respond with the label that goes with your answer.
II
(II: 4 % F, I: 11 % F)

---

biological target: human growth hormone secretagogue receptor (hGHS-R1a) (Homo sapiens, UniProt Q92847); assay: Competitive radioligand binding assay (ghrelin receptor), standard method A; settings: binding activity at the human ghrelin receptor, standard method A
Sequence (Q92847 whole entry): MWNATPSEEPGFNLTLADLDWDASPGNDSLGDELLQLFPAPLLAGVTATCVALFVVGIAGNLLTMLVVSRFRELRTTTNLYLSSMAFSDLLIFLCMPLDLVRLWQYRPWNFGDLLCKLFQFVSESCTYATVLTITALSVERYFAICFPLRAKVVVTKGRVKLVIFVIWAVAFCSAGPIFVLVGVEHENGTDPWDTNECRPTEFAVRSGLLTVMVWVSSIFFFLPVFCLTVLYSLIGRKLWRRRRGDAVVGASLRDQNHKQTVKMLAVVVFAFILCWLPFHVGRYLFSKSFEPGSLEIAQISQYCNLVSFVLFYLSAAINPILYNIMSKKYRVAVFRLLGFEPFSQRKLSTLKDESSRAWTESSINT
pKi: −log10 of the molar value.
RECORDED METRIC: pKi

In the examples that follow, each entry is paired with its recorded pKi.
C[C@H]1CNC(=O)[C@@H](Cc2ccc(F)cc2)NC(=O)[C@@H](C)N(C)C(=O)[C@H](C2CC2)NC[C@@H](C)Oc2ccccc2C1 :: ≥ 7.00
CC[C@H](C)[C@@H]1NC[C@@H](C)Oc2ccccc2CCCNC(=O)[C@@H](Cc2ccc(O)cc2)NC(=O)[C@@H](C)N(C)C1=O :: ≥ 7.00
CC(=O)Oc1c(Br)cc(C[C@H]2NC(=O)[C@@H](C)N(C)C(=O)[C@H](C3CC3)NC[C@@H](C)Oc3ccccc3CCCNC2=O)cc1Br :: ≥ 7.00
C[C@@H]1C(=O)N[C@H](Cc2ccc(Cl)cc2)C(=O)NCCCc2cccc3c2OC(CC3)CN[C@@H](C2CC2)C(=O)N1C (stereo partly drawn) :: ≥ 8.00
CC[C@H](C)[C@@H]1NC[C@@H](C)Oc2ccccc2CCCNC(=O)[C@@H](Cc2cccnc2)NC(=O)[C@@H](C)N(C)C1=O :: ≥ 7.00

Now consider the entry below.
Lab note: measured pKi of `CC(C)C[C@H]1NC(=O)[C@@H](C)N(C)C(=O)[C@H](C2CC2)NC[C@@H](C)Oc2c(Cl)cccc2CCCNC1=O` was ≥ 6.30

---

test system: fasted rats; assay: Gastric emptying in fasted rat model, standard method E; assay type: in vivo; settings: dose 3 mg/kg, average where repeated
RECORDED METRIC: Percent Increase in Gastric Emptying After Oral Administration (%)
Quick reminder: number only, in %, skip the unit.

CC1CNC(C2CC2)C(=O)N(C)C(C)C(=O)NC(Cc2ccc(O)c(F)c2)C(=O)NCCCC2CCCCC2O1 (mixture of isomers) :: 13

Lab note: measured Percent Increase in Gastric Emptying After Oral Administration of `CC(C)C[C@H]1NC(=O)[C@@H](C)N(C)C(=O)[C@H](C2CC2)NCCOc2c(F)cccc2CCCNC1=O` was 11

Lab note: measured Percent Increase in Gastric Emptying After Oral Administration of `C[C@@H]1C(=O)N[C@H](Cc2ccc(O)cc2)C(=O)NCCCc2ccc(F)c(F)c2OCCN[C@@H](C2CC2)C(=O)N1C` was 11

Lab note: measured Percent Increase in Gastric Emptying After Oral Administration of CC1CNC(C2CC2)C(=O)N(C)C(C)C(=O)NC(Cc2ccc(O)cc2)C(=O)NCCCC2CCCCC2O1 (mixture of isomers) was 12
